test system: NCI-H226; experiment: NCI tumour cell line growth inhibition, 48 h
Calls of active or inactive are those of the source. Cut-off read from the data, not from the text of the source: active = GI50 up to about 1.1 µM and inactive = higher.
Attribute: GI50

Previously resolved entries follow.
Annotate the compound CC(=O)c1ccc(/N=N/N2CCCC2)cc1 with its measured GI50.
> 100 µM (inactive)

Consider the compound O=C1C(c2c(O)[nH]c3ccc(Br)cc23)=Nc2ccccc21 and give its recorded GI50.
15.1 µM (inactive)

Specify measured GI50 for Cc1c[nH]c(C(=O)O)c1-c1ccc2c(-c3ccccc3)nc3ccccc3n12 .
20.3 µM (inactive)

Consider the compound CCOP(=O)(O)C(Nc1ccc(/N=N/c2ccccc2)cc1)c1ccc(C(Nc2ccc(/N=N/c3ccccc3)cc2)P(=O)(O)OCC)cc1 (stereo not given) . State its measured GI50.
40.3 µM (inactive)

Others:
Give me measured GI50, please, for this compound: Cc1cc(C)c2c(O)cc(-c3ccc(Cl)cc3)nc2n1
> 100 µM (inactive)
